Test system: NCI-H226 lung
Test: NCI tumour cell line growth inhibition, 48 h
Recorded endpoint: GI50

Examples from the recorded data:
Compound	Tested target	Measured result
Cc1nc(-c2nc(-c3ccc(OC(F)(F)F)cc3)no2)nn1Cc1cccc(N2CCC(S(C)(=O)=O)CC2)c1	NCI-H226 lung	0.931 µM
CCOC(=O)c1cc(C(=O)c2cc(OC)c(OC)c(OC)c2)n2c1ccc1ccccc12	NCI-H226 lung	1.23 µM
O=C(/C(=C/c1ccc([N+](=O)[O-])cc1)SCc1ccc(Cl)cc1)c1ccc(F)cc1	NCI-H226 lung	9.67 µM

# map each compound to its GI50
1. Clc1ccc(Nc2ccnc(N3CCN(c4ccnc5cc(Cl)ccc45)CC3)n2)cc1
2. Cc1ccc(-c2cc3c4c(nc5ccccc53)C(=O)c3cccnc3-c4n2)cc1
3. C[C@]12CC[C@@H]3c4cc(O)c(O)cc4CC[C@H]3[C@@H]1CC[C@@H]2O

3.96 µM
56.4 µM
26.8 µM

# map each compound to its GI50
1. N/C(=N/N=C/c1ccccc1)N/N=C\c1ccccc1
2. CCOC(=O)Nc1nc2ccc(Br)cc2s1
3. CN1CCC2(CC1)NC(=O)c1c(c3ccc(Cl)c(Cl)c3n1C)C2C#N (stereo not given)

12.3 µM
> 50 µM
6.52 µM

Consider the compound Cn1cc(C2=C(c3c4n(c5ccccc35)CCC(CN)C4)C(=O)NC2=O)c2ccccc21 (stereo not given) and give its recorded GI50.
3.34 µM

* * *

Test system: SF-268 CNS
Assay: NCI tumour cell line growth inhibition, 48 h
Recorded endpoint: TGI

Compound	Recorded endpoint	Measured result
Cc1cc(C)n(-c2ccnc3cc(Cl)ccc23)n1	TGI	> 100 µM
CN(C)CCCNc1ncnc2c1ncn2C1OC(CO)C(O)C1O (stereo not drawn)	TGI	> 100 µM

Consider the compound COc1ccc(C2=C(N)c3c(Cl)cccc3C2=O)cc1 and give its recorded TGI.
> 100 µM

* * *

System: NCI-H522 lung
Assay: NCI tumour cell line growth inhibition, 48 h
Kindly state TGI for each of the entries shown.

Examples from the recorded data:
Compound	Measured result
CCOC(=O)Cn1c(=O)c2nc(SC)sc2n(-c2ccccc2)c1=S	> 100 µM
O=C(NCc1cccnc1)C1COc2cc(-c3cc(=O)c4ccccc4o3)ccc2O1 (centres undefined)	> 100 µM
C/C=C1\CC2C(=O)CCC2C2c3ccccc3OC12 (centres undefined)	> 100 µM

Now let's try a different one.
Consider the compound O=C(O)c1cc(=O)c2c(OCC(O)COc3cccc4oc(C(=O)O)cc(=O)c34)cccc2o1 and give its recorded TGI.
> 75.2 µM

* * *

Kindly state TGI for each of the entries shown.
System: OVCAR-5 ovarian
Test: NCI tumour cell line growth inhibition, 48 h

Examples from the recorded data:
Compound	Recorded endpoint	Measured result
CCOC(=O)C1C(C)C2(C#N)C(=N)OC1(C)C2(C#N)C#N (stereo not given)	TGI	> 100 µM
C=C1C(=O)O[C@H]2C[C@@H]1CC/C(C)=C/CC/C(C)=C/CC[C@@]2(C)O	TGI	> 100 µM
CC[C@@H](C(=O)[C@H](C)[C@H](O)[C@@H](C)[C@H]1O[C@H]([C@@H](CC)C(=O)N(CC)CC)CC[C@H]1C)C1O[C@]2(C=C[C@@H](O)[C@]3(CC[C@@](C)([C@H]4CC[C@](O)(CC)[C@H](C)O4)O3)O2)[C@H](C)C[C@@H]1C (stereo not given in full)	TGI	11.1 µM
CCc1nc(N)nc(N)c1-c1ccc2nnn(O)c2c1	TGI	> 100 µM

Now let's try a different one.
Consider the compound CCOC(=O)Cn1c(=O)c2nc(SC)sc2n(-c2ccccc2)c1=S and give its recorded TGI.
> 100 µM

* * *

Tested on: TK-10 renal
Assay: NCI tumour cell line growth inhibition, 48 h; in the data active = GI50 below about 0.43 µM; inactive = the rest
Pick one and only one: true for active, false for inactive

What classification did CCN1C(=O)N(CC)C2C1NN=c1s/c(=C\c3ccco3)c(=O)n12 (stereo unspecified) end up with in this test?
false

* * *

System: ACHN renal
Assay: NCI tumour cell line growth inhibition, 48 h
Recorded endpoint: GI50

Examples from the recorded data:
Compound	Recorded endpoint	Measured result
CCCCCCCCC/C(=N\NC(=O)c1ccncc1)c1ccc(O)c(O)c1O	GI50	0.0734 µM
O=[N+]([O-])c1ccc(C2CC(c3ccccc3)=Nc3ccccc3S2)cc1 (stereo unspecified)	GI50	88.7 µM
N/C(=N/N=C/c1ccccc1)N/N=C\c1ccccc1	GI50	6.4 µM
COc1ccc2cc(C(=O)/C=C/c3ccc(N(C)C)cc3)ccc2c1	GI50	81.4 µM
COc1cc2ncnc(Nc3cccc(Cl)c3F)c2cc1OC(=O)N1CCN(C)C[C@H]1C	GI50	0.273 µM

Now let's try a different one.
Consider the compound CN1CCC2(CC1)NC(=O)c1c(c3ccc(Cl)c(Cl)c3n1C)C2C#N (stereo unspecified) and give its recorded GI50.
5.75 µM

* * *

Tested on: KM12 colon
Test: NCI tumour cell line growth inhibition, 48 h
Kindly state TGI for each of the entries shown.

Compound	Measured result
CC1(C)CC(=O)C2=C(C1)NC1=C(C2)C(=O)CC(C)(C)C1	> 100 µM
N#CCCCCCOCCOCCOCCOCCOCCCCCC#N	> 100 µM
CCCc1cc(=O)n2c(C(=O)Nc3cccc(C(=O)OCC)c3)c(C(=O)Nc3ccc(F)cc3)sc2n1	> 140 µM
COc1cc2ncnc(Nc3cccc(Cl)c3F)c2cc1OC(=O)N1CCN(C)C[C@H]1C	> 88.5 µM
O=C1[C@@H]2C(c3ccccc3[N+](=O)[O-])=[N+](c3ccccc3)O[C@@H]2C(=O)N1c1ccc(Cc2ccc(N3C(=O)[C@H]4C(c5ccccc5[N+](=O)[O-])=[N+](c5ccccc5)O[C@H]4C3=O)cc2)cc1	> 100 µM
Cc1[nH]c(=O)[nH]c(=O)c1/C=C/C(=O)NC(CO)CS(=O)Cc1ccccc1 (stereo unspecified)	> 300 µM
N#CC1=C(c2ccccc2)C(=C2Nc3ccccc3N2)C2S/C(=C\c3ccccc3)C(=O)N2C1=N (stereo unspecified)	15.1 µM
COc1cc2c(cc1OC)CC(=O)Nc1cc(OC)c(OC)cc1CC2	> 100 µM
NNC(=O)CCSc1ccccc1	> 100 µM
COc1ccc(-c2c3c(n(C4OC(COC(C)=O)C(OC(C)=O)C(OC(C)=O)C4OC(C)=O)c(=S)c2C#N)CCC3)cc1 (stereo unspecified)	> 100 µM

# map each compound to its TGI
1. Cn1nc(C(F)(F)F)cc1-c1c[nH]c(OCc2ccc(Cl)cc2)c(-c2ccc(Cl)c(C(F)(F)F)c2)c1=O
2. O=C([O][Hg][CH2]C1OCCOC1[CH2][Hg][O]C(=O)c1ccccc1)c1ccccc1 (stereo unspecified)
3. O=[N+]([O-])c1ccc(Oc2c(Cl)cc(S(=O)(=O)/N=C(\NO)Nc3ccc(Cl)cc3)cc2Cl)c(Cl)c1
4. C#C/C=C\CCCCCCCCCCCCCC/C=C\CCCCC#CC(O)C#CCCCC/C=C\CCCCCC/C=C/C(O)C#C (stereo unspecified)
5. Cc1cc(O)cc(C)c1/C=C/c1cncc(C(N)=O)c1
6. CCN(CC)CCN(C(=Nc1ccccc1)N1CCCCC1)c1ccccc1

4.86 µM
30.1 µM
28.4 µM
20.1 µM
> 25 µM
23.9 µM

* * *

System: M19-MEL melanoma
Test: NCI tumour cell line growth inhibition, 48 h
Recorded endpoint: TGI

Examples from the recorded data:
Compound	TGI
CCOC(=O)C(N=C(c1ccccc1)c1ccccc1)N(C(=O)OC(C)(C)C)C(=O)OC(C)(C)C (stereo unspecified)	> 100 µM
O=C1[C@@H]2C(c3ccccc3[N+](=O)[O-])=[N+](c3ccccc3)O[C@@H]2C(=O)N1c1ccc(Cc2ccc(N3C(=O)[C@H]4C(c5ccccc5[N+](=O)[O-])=[N+](c5ccccc5)O[C@H]4C3=O)cc2)cc1	> 100 µM
O=C(NCc1cccnc1)C1COc2cc(-c3cc(=O)c4ccccc4o3)ccc2O1 (stereo unspecified)	> 100 µM
COc1cc2c(cc1OC)CC(=O)Nc1cc(OC)c(OC)cc1CC2	> 100 µM
O=C(c1nc2ccccc2[nH]c1=O)C(O)c1ccco1 (stereo unspecified)	> 100 µM

Consider the compound CC(C)C(=O)CC(c1ccc(Cl)cc1)N1N=C(C(C)C)CC1c1ccc(Cl)cc1 (stereo unspecified) and give its recorded TGI.
> 55.6 µM

* * *

System: MDA-N
Assay: NCI tumour cell line growth inhibition, 48 h
Recorded endpoint: TGI

Compound	TGI
c1ccc(C(NC2=NCCO2)c2ccccc2)cc1	> 10 µM
CCCN(CCC)C(=S)N/N=C/c1ccccn1	14.8 µM
N=N/C(=C\c1c(O)[nH]c2ccccc12)c1ccccc1	13.7 µM
O=C(CCCN1CCC2(CC1)CC(=O)N(N1CCOCC1)C2=O)c1ccc(F)cc1	> 100 µM
COC(=O)C1=COC(OC2OC(CO)C(O)C(O)C2O)C2C3CN4CCc5c([nH]c6ccccc56)C4(CC12)O3 (centres undefined)	> 100 µM

# map each compound to its TGI
1. CC1=NC2c3c(-c4ccc(Cl)cc4)cn(-c4ccc(C)cc4)c3N=CN2N1 (centres undefined)
2. O=C(CC(C(=O)c1cccs1)c1ccsc1)c1ccccc1 (centres undefined)

1: > 100 µM; 2: > 100 µM

# map each compound to its TGI
1. CC1=CCCC2C1(C)CCC(C)C2(C)Cc1cc(O)ccc1O (centres undefined)
2. C[C@@H]1CCC([C@@H](C)[C@H]2CC[C@H]3[C@@H]4CC[C@H]5C[C@@H](O)CC[C@]5(C)[C@H]4CC[C@]23C)=NC1
3. CC1=NNC(=O)C1C1CC(c2c[nH]c3ccccc23)=NN(C(N)=O)C1=O (centres undefined)
4. O=c1/c(=C/c2ccc([N+](=O)[O-])o2)sc2n1[C@@H](c1ccc(Cl)cc1)C=C(c1cc(F)c(Cl)cc1Cl)N=2
5. COc1cc2c(c(OC)c1OC)-c1ccc(OC)c(=O)cc1[C@@H](NC(C)=O)CC2
6. COC(=O)[C@H](Cc1c[nH]c2ccccc12)NP(=O)(O)OC[C@H]1O[C@@H](n2cc(C)c(=O)[nH]c2=O)C[C@@H]1N=[N+]=[N-]
7. CC(C)(C)OC(=O)NC(Cc1ccc(O)cn1)C(=O)O (centres undefined)

1: 25.3 µM; 2: > 100 µM; 3: > 100 µM; 4: 23.3 µM; 5: 0.833 µM; 6: > 100 µM; 7: > 100 µM

# map each compound to its TGI
1. C[C@]12CC[C@H]3[C@@H](CC=C4C[C@@H](O)CC[C@@]43C)[C@@H]1C/C(=C/c1ccccc1)[C@@H]2O
2. Cc1cc(C)c(O)c(CN2CCN(C(C)C)CCN(C(C)C)CC2)c1
3. CONC(C)=O
4. COC(=O)C1=CO[C@@H](OC2OC(CO)C(O)C(O)C2O)[C@H]2[C@@H](C)[C@@H](O)[C@@H](O)[C@@H]12 (some centres undefined)
5. COc1cc2oc(-c3ccc4c(c3)OCO4)c(OC)c(=O)c2c(OC)c1O

1: 65.5 µM; 2: 68.3 µM; 3: > 100 µM; 4: > 100 µM; 5: > 100 µM

Numbers sourced from PubChem BioAssay (NCI).
